Recorded values, source patent US5126336A.

tested on: S. aureus 209P; experiment: MIC, agar dilution; assay type: cell-based; settings: Staphylococcus aureus; S. aureus 209P; Mueller-Hinton agar pH 7.2; 32° C., 18 hr; 10^6 cells/ml; read-out: MIC
MEASUREMENT NAME: MIC (µg/mL)
Field: numeric (µg/mL). Do not append units.

Example entries begin here.
- Nc1nc(/C(=N/O)C(=O)NC2C(=O)N3C(C(=O)O)=C(/C=C/Cn4ccc5cc(=O)c(O)cc-5c4)CS[C@H]23)cs1 (stereo partly drawn) [Is]: 0.8
- C[n+]1cn(C/C=C/C2=C(C(=O)[O-])N3C(=O)C(NC(=O)/C(=N\OC(C)(C)C(=O)O)c4csc(N)n4)C3SC2)c2cc(O)c(O)cc21 (stereo not drawn) [Ip]: 25
- Nc1nc(/C(=N/O)C(=O)NC2C(=O)N3C(C(=O)[O-])=C(/C=C/C[n+]4cc5cc(O)c(O)cc5cn4)CS[C@H]23)cs1 (stereo partly drawn) [Ik]: 0.8
- CC(C)(O/N=C(\C(=O)NC1C(=O)N2C(C(=O)[O-])=C(/C=C/C[n+]3cc4cc(O)c(O)cc4cn3)CS[C@H]12)c1csc(N)n1)C(=O)O (stereo partly drawn) [Ii]: 25
- CO/N=C(\C(=O)NC1C(=O)N2C(C(=O)O)=C(/C=C/Cn3cnc4cc(O)c(O)cc43)CS[C@H]12)c1csc(N)n1 (stereo partly drawn) [Iu]: 6.3

Consider now this further molecule.
State, in one line, measured MIC of CC(C)(O/N=C(\C(=O)NC1C(=O)N2C(C(=O)O)=C(/C=C/Cn3cnc4cc(O)c(O)cc43)CS[C@H]12)c1csc(N)n1)C(=O)O (stereo partly drawn) [Io] 12.5

###

tested on: P. vulgaris IPM-13
MEASUREMENT NAME: MIC (µg/mL)
Just the number please, in µg/mL, no unit attached.

* CC(C)(O/N=C(\C(=O)NC1C(=O)N2C(C(=O)O)=C(/C=C/Cn3cnc4cc(O)c(O)cc43)CS[C@H]12)c1csc(N)n1)C(=O)O (stereo partly shown) | 50
* CC(C)(O/N=C(\C(=O)NC1C(=O)N2C(C(=O)[O-])=C(/C=C/C[n+]3cc4cc(O)c(O)cc4cn3)CS[C@H]12)c1csc(N)n1)C(=O)O (stereo partly shown) | 12.5

Kindly review the next compound as well.
Please report MIC with P. vulgaris IPM-13 for item C[n+]1cn(C/C=C/C2=C(C(=O)[O-])N3C(=O)C(NC(=O)/C(=N\OC(C)(C)C(=O)O)c4csc(N)n4)C3SC2)c2cc(O)c(O)cc21 (stereo not shown) . 12.5

###

tested on: Gn-III: Ps. aeruginosa (7); test: MIC, two-fold serial agar dilution, Gn-III; type: cell-based; settings: Pseudomonas aeruginosa, Gn-III, 7 strains; Mueller-Hinton agar; read-out: Geometric mean of MIC
MEASUREMENT NAME: MIC (µg/mL)
Value expressed in µg/mL; do not type the unit.

Example cases with answers are listed next.
• CC(C)(O/N=C(\C(=O)NC1C(=O)N2C(C(=O)[O-])=C(/C=C\C[N+]3(C)Cc4cc(O)c(O)cc4C3)CS[C@H]12)c1csc(N)n1)C(=O)O (stereo partly drawn) = 1.4
• CO/N=C(\C(=O)NC1C(=O)N2C(C(=O)[O-])=C(/C=C\C[N+]3(C)Cc4cc(O)c(O)cc4C3)CS[C@H]12)c1csc(N)n1 (stereo partly drawn) = 2.9

Proceeding to the next compound to report its MIC.
Given CC(C)(O/N=C(\C(=O)NC1C(=O)N2C(C(=O)[O-])=C(/C=C/C[N+](C)(C)CCc3ccc(O)c(O)c3)CS[C@H]12)c1csc(N)n1)C(=O)O (stereo partly drawn) , respond with its MIC. 0.59
